System: SN12C
ASSAY_METHOD_TEXT: Antiproliferative activity against human SN12C cells assessed as cell growth at 10 uM
Format: functional
ASSAY_CONDITIONS: read-out: Activity
The entries below come with measured growth at 10 µM values attached.
OBSERVED_PROPERTY: growth at 10 µM (%)

- O=C1c2ccccc2C(=O)c2c1ccc1nsnc21: -73.3
- CN(C)c1ccc(-c2nc3ccc4c(c3[nH]2)C(=O)c2ccccc2C4=O)cc1: 94.5
- N#Cc1ccc(-c2nc3ccc4c(c3[nH]2)C(=O)c2ccccc2C4=O)cc1: 105
- O=C1c2ccccc2C(=O)c2c1ccc1nc(-c3ccccc3)[nH]c21: 87.5
- O=C1c2ccccc2C(=O)c2c1ccc1nc(-c3ccc4c(c3)OCO4)[nH]c21: 101
- O=C1c2ccccc2C(=O)c2c1ccc1nc(-c3ccc(Br)cc3)[nH]c21: 112
- Cc1ccc(-c2nc3ccc4c(c3[nH]2)C(=O)c2ccccc2C4=O)cc1: 103
- O=C1c2ccccc2C(=O)c2c1ccc1nccnc21: 64.7
- CCc1nc2ccc3c(c2[nH]1)C(=O)c1ccccc1C3=O: 68.5
- CC1(C)Nc2ccc3c(c2N1)C(=O)c1ccccc1C3=O: 92
- COc1cc(-c2nc3ccc4c(c3[nH]2)C(=O)c2ccccc2C4=O)ccc1O: 102

###

Test system: NCI-H23
ASSAY_METHOD_TEXT: Antiproliferative activity against human NCI-H23 cells assessed as cell growth at 10 uM
Format: functional
ASSAY_CONDITIONS: read-out: Activity
OBSERVED_PROPERTY: growth at 10 µM (%)

- CN(C)c1ccc(-c2nc3ccc4c(c3[nH]2)C(=O)c2ccccc2C4=O)cc1: 93.8
- O=C1c2ccccc2C(=O)c2c1ccc1nc(-c3ccc4c(c3)OCO4)[nH]c21: 94.3
- O=C1c2ccccc2C(=O)c2c1ccc1nc(-c3ccccc3)[nH]c21: 91.7
- O=C1c2ccccc2C(=O)c2c1ccc1nccnc21: 65.1
- Cc1ccc(-c2nc3ccc4c(c3[nH]2)C(=O)c2ccccc2C4=O)cc1: 98.8

###

TARGET_DESC: Telomerase reverse transcriptase (Homo sapiens) (UniProt O14746)
Sequence (O14746 whole entry): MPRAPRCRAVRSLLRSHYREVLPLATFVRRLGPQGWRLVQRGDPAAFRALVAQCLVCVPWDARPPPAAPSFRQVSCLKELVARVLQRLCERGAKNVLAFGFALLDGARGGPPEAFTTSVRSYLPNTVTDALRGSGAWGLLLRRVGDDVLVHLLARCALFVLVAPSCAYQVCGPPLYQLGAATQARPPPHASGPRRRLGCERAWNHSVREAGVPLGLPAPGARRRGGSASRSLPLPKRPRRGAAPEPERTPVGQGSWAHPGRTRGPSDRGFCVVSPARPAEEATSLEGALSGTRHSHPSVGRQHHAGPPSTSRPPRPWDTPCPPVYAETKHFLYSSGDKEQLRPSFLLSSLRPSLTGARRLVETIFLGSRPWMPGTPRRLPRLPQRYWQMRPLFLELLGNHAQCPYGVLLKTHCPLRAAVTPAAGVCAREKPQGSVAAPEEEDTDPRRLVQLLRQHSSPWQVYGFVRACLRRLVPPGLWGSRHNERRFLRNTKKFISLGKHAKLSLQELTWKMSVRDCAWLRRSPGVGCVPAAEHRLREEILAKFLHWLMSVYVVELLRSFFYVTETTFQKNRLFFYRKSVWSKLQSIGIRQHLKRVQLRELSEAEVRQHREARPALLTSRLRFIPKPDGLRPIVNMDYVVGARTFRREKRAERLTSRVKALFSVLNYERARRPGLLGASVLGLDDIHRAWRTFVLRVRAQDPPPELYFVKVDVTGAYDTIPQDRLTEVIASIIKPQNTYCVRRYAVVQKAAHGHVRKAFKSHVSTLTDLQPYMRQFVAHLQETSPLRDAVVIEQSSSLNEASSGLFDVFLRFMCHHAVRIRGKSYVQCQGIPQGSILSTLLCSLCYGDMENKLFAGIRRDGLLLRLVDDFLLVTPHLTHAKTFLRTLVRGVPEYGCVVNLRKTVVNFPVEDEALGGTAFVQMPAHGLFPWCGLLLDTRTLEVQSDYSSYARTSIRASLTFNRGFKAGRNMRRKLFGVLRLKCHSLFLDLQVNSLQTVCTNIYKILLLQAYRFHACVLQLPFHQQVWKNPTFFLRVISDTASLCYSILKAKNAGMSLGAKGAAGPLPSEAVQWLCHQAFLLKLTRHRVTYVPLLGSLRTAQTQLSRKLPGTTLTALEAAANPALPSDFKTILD
ASSAY_METHOD_TEXT: Inhibition of TERT in human H1299 cells assessed as residual transcriptional activity at 10 uM after 24 hrs by SEAP reporter gene assay; values are per cent of control
OBSERVED_PROPERTY: residual activity

* O=C1c2ccccc2C(=O)c2c1ccc1[nH]c(=S)[nH]c21 | 100%
* CCc1nc2ccc3c(c2[nH]1)C(=O)c1ccccc1C3=O | 59%
* O=C1c2ccccc2C(=O)c2c1ccc1nc(-c3ccccc3)[nH]c21 | 78%
* Cc1ccc(-c2nc3ccc4c(c3[nH]2)C(=O)c2ccccc2C4=O)cc1 | 82%
* COc1cc(-c2nc3ccc4c(c3[nH]2)C(=O)c2ccccc2C4=O)ccc1O | 50%
* O=C1c2ccccc2C(=O)c2c1ccc1nc(-c3ccc4c(c3)OCO4)[nH]c21 | 61%
* N#Cc1ccc(-c2nc3ccc4c(c3[nH]2)C(=O)c2ccccc2C4=O)cc1 | 83%
* O=C1c2ccccc2C(=O)c2c1ccc1nccnc21 | 26%

###

The entries below come with measured growth at 10 µM values attached.
System: HCC 2998
ASSAY_METHOD_TEXT: Antiproliferative activity against human HCC2998 cells assessed as cell growth at 10 uM
Format: functional
ASSAY_CONDITIONS: read-out: Activity
OBSERVED_PROPERTY: growth at 10 µM (%)

• O=C1c2ccccc2C(=O)c2c1ccc1nc(-c3ccccc3)[nH]c21 = 105
• Cc1ccc(-c2nc3ccc4c(c3[nH]2)C(=O)c2ccccc2C4=O)cc1 = 104
• CN(C)c1ccc(-c2nc3ccc4c(c3[nH]2)C(=O)c2ccccc2C4=O)cc1 = 109
• CC1(C)Nc2ccc3c(c2N1)C(=O)c1ccccc1C3=O = 137
• O=C1c2ccccc2C(=O)c2c1ccc1nc(-c3ccc4c(c3)OCO4)[nH]c21 = 85.7
